- Test system: RARg homodimer (NR concentration 270 nM)
- assay details: PBM binding z-score (relative to random genomic background probes); higher = stronger binding; sequences stand for … in GC…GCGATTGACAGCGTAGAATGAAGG
Listed next: entries and their corresponding PBM binding z-score.

[
  {
    "seq text": "GGAACGAGGGGAAAGTTGATAGCATCTGTCGACG",
    "target or test system": "RARg homodimer (NR concentration 270 nM)",
    "PBM binding z-score": 0.188
  },
  {
    "seq text": "TAGCCTAGGTCATGCGGGCCTGTATAGTGTCGGC",
    "target or test system": "RARg homodimer (NR concentration 270 nM)",
    "PBM binding z-score": 4.07
  },
  {
    "seq text": "CGAACTAGGTCAGAACGGGACAGTGAAGGATGAT",
    "target or test system": "RARg homodimer (NR concentration 270 nM)",
    "PBM binding z-score": 2.96
  },
  {
    "seq text": "CGAACTAGGTCTGAACAGGACAGTGAAGGATGAT",
    "target or test system": "RARg homodimer (NR concentration 270 nM)",
    "PBM binding z-score": 0.136
  },
  {
    "seq text": "GCGGACAGGTGAAACGCAGGTAACTCAGGGTGGC",
    "target or test system": "RARg homodimer (NR concentration 270 nM)",
    "PBM binding z-score": 0.717
  },
  {
    "seq text": "CTCGAAAGGTCGTTCTCAGGTGAGTATACCAAAC",
    "target or test system": "RARg homodimer (NR concentration 270 nM)",
    "PBM binding z-score": 3.33
  },
  {
    "seq text": "ATCGCAAGGTCGTGAGGTGAGTATACAGAAAGGC",
    "target or test system": "RARg homodimer (NR concentration 270 nM)",
    "PBM binding z-score": 2.38
  },
  {
    "seq text": "TAGCCTAGGTCATTCAGGGGCCAGTTTAGAAAGC",
    "target or test system": "RARg homodimer (NR concentration 270 nM)",
    "PBM binding z-score": 4.11
  },
  {
    "seq text": "TAGCCTTGGTCATGGGCCAGTATACCACGCGAAC",
    "target or test system": "RARg homodimer (NR concentration 270 nM)",
    "PBM binding z-score": 0.681
  },
  {
    "seq text": "CCTCGGAGGGCAACAGGAGGTCAGAGCTGCCAGA",
    "target or test system": "RARg homodimer (NR concentration 270 nM)",
    "PBM binding z-score": 4.23
  },
  {
    "seq text": "TCTATTAGTTGAAGGGCAACGGACGAGTCCGTTT",
    "target or test system": "RARg homodimer (NR concentration 270 nM)",
    "PBM binding z-score": 0.572
  },
  {
    "seq text": "CGAACTAGGTGAGAACAGGACAGTGAAGGATGAT",
    "target or test system": "RARg homodimer (NR concentration 270 nM)",
    "PBM binding z-score": 0.579
  }
]
